Reference source for all entries: paper PMC11879086

pKd values for the binders below.
Target: T1, MORC2 dephosphorylated (wild-type) (Homo sapiens, UniProt Q9Y6X9 1-1032)
T1 sequence: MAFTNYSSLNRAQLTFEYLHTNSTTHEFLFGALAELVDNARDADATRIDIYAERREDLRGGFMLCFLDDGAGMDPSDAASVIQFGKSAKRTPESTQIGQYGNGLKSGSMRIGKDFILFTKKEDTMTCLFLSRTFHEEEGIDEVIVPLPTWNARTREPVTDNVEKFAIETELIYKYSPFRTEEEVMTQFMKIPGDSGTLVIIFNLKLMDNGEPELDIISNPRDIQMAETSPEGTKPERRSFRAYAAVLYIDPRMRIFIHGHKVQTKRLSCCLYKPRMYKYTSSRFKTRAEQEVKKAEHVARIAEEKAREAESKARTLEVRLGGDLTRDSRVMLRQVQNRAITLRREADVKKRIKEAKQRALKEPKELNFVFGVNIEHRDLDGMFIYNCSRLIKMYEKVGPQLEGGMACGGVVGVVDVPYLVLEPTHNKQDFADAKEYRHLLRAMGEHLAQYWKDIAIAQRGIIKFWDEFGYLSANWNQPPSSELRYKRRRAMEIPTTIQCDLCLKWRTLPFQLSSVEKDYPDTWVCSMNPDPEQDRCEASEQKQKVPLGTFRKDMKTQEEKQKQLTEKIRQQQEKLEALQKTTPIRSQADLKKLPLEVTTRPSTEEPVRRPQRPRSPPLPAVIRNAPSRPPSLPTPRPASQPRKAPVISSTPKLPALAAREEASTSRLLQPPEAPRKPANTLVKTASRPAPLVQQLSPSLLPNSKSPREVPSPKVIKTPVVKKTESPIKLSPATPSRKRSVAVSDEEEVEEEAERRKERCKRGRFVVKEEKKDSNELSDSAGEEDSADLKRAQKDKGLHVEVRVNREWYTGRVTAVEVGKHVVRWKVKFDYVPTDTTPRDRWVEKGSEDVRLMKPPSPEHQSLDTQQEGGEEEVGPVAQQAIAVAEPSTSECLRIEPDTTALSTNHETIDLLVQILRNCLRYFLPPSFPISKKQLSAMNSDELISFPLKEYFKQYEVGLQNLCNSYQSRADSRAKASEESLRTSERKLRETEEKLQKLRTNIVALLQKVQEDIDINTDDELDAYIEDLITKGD
Experiment: fluorescence anisotropy; apo; FA/EMSA: 50 mM NaCl, 3 mM MgCl2, 20 mM Na-HEPES pH 7.4, 1 mM TCEP, 10% glycerol, 0.025 mM ZnCl2, 50 ug/ml BSA, room temperature; 1 nM nucleic acid (FA) or 20 nM DNA (EMSA)
Settings: protein: recombinant; tags: tag removed by TEV; chain copies: 2; label: 5'-6-FAM
pKd: −log10 of the molar value.
READOUT LABEL: pKd

>>> reported("AUAGGGUCCAUCAGAAUUCGGAUGAACUCGGUGUG (ssRNA) [Random 35mer ssRNA]")
7.31
>>> reported("ATAGGGTCCATCAGAATTCGGATGAACTCGGTGTG (ssDNA) [Random 35mer ssDNA]")
7.29
